Test system: rodent lifetime carcinogenesis bioassay, tumor incidence TD50
assay.info: carcinogenic potency in animals, long-term in vivo studies, CPDB compilation (AID 1745844)
stated.conditions: rat; strain Fischer 344; males; by gavage; site: spleen; lesion: fibrosarcoma + fibroma; dosed 103 weeks; study length 105 weeks
measured.property: TD50 (mg/kg/day)

{"sample.smiles": "Nc1ccc(Cl)cc1", "unit.name": "mg/kg/day", "result.value": 16.9}

* * *

Tested on: rodent lifetime carcinogenesis bioassay, tumor incidence TD50
assay.info: carcinogenic potency in animals, long-term in vivo studies, CPDB compilation (AID 1745844)
stated.conditions: rat; strain Fischer 344; females; in drinking water; site: liver; lesion: hepatocellular carcinoma; dosed 100 weeks; study length 126 weeks
measured.property: TD50

{"sample.smiles": "O=NN1CCOCC1", "result.value": "0.431 mg/kg/day"}

* * *

Tested on: rodent lifetime carcinogenesis bioassay, tumor incidence TD50
assay.info: carcinogenic potency in animals, long-term in vivo studies, CPDB compilation (AID 1745844)
stated.conditions: rat; strain ACI; males; in feed; site: cecum; lesion: adenoma; dosed 77 weeks; study length 77 weeks
Active and inactive are the calls of the source. The rule behind the calls is not given here.
measured.property: TD50

{"sample.smiles": "O=c1c(O)c(-c2ccc(O)c(O)c2)oc2cc(O)cc(O)c12", "measured.property": "TD50", "result.value": "7130 mg/kg/day (inactive)"}

* * *

System: rodent lifetime carcinogenesis bioassay, tumor incidence TD50
assay.info: carcinogenic potency in animals, long-term in vivo studies, CPDB compilation (AID 1745844)
stated.conditions: mouse; strain B6C3F1; males; in feed; site: liver; lesion: hepatocellular adenoma; dosed 103 weeks; study length 105 weeks
The source made the active and inactive calls. How the calls were made is not given here.
Outcome codes: active, inactive

{"compound": "CO[C@H]1[C@@H](O)[C@@H](CO)OC(OC2C3CO[C@H]2[C@H](O)C(C)O3)[C@@H]1O (some centres not stated)", "test.system": "rodent lifetime carcinogenesis bioassay, tumor incidence TD50", "assigned.class": "inactive"}
{"compound": "Nc1cc(S(=O)(=O)[O-])cc2cc(S(=O)(=O)[O-])c(N=Nc3ccc(-c4ccc(N=Nc5c(S(=O)(=O)[O-])cc6cc(S(=O)(=O)[O-])cc(N)c6c5O)c(O)c4)cc3O)c(O)c12.[Cu].[Cu].[Na+].[Na+].[Na+].[Na+]", "test.system": "rodent lifetime carcinogenesis bioassay, tumor incidence TD50", "assigned.class": "active"}

* * *

Test system: rodent lifetime carcinogenesis bioassay, tumor incidence TD50
assay.info: carcinogenic potency in animals, long-term in vivo studies, CPDB compilation (AID 1745844)
stated.conditions: mouse; strain CTM; females; in drinking water; site: Harderian gland; lesion: one or several types; types not named; dosed 50 weeks; study length 100 weeks
The source made the active and inactive calls. The rule behind the calls is not given here.

{"sample.smiles": "C1N2CN3CN1CN(C2)C3", "TD50": "26300 mg/kg/day (inactive)"}

* * *

Test system: rodent lifetime carcinogenesis bioassay, tumor incidence TD50
assay.info: carcinogenic potency in animals, long-term in vivo studies, CPDB compilation (AID 1745844)
stated.conditions: mouse; strain B6AKF1; females; oral dosing; site: any site (literature study); lesion: several types; types named in the paper; dosed 85 weeks; study length 85 weeks

{"sample.smiles": "CC(C)N(C(=O)SCC(Cl)=CCl)C(C)C", "unit.name": "mg/kg/day", "TD50": 1990}
